Molecular target: T1, human MSLN on OVCAR3 tumor cells (human, UniProt Q13421 296-598)
T1 construct: whole, on cells; also called human MSLN protein
T1 sequence (Q13421 other isoform, or with tags, fused parts or gaps): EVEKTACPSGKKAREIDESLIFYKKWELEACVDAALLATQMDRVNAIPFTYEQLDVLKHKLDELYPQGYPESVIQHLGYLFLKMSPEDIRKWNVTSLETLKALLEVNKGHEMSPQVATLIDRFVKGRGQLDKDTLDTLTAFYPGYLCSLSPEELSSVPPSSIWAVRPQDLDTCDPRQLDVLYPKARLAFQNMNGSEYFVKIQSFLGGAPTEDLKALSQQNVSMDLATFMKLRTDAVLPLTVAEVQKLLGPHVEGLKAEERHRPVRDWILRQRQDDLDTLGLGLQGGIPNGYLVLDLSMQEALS
Assay: FACS, OVCAR3 cells
Measured pEC50, listed per entry.
// scale note: pEC50 = -log10(conc_M); give the bare number

Known results for binders:
F2.39.3-H9 (scFv, not shown: small tags and cut ends, also called S009-F2.39.3 humanized antibody VH3 + VL1) scFv: EVQLVQSGAEVKKPGASVKVSCKASGYTFTNYWMHWVRQAPGQGLEWMGNINPSSGDSYYNERFMSRVTMTVDKSTSTAYMELSSLRSEDTAVYYCARSGGLWLAFWGPGTLVTVSSGGGGSGGGGSGGGGSDIVMTQSPDSLAVSLGERATINCKSSQTLLNSVSQNNYLAWYQQKPGQSPKLLIYFASTRESGVPDRFSGSGSGTDFTLTISSLQAEDVAVYYCQQHYRTPYTFGGGTKVEIK = 7.76
F2.39.3-H1 (scFv, not shown: small tags and cut ends, also called S009-F2.39.3 humanized antibody VH1 + VL1) scFv: EVQLVQSGAEVKKPGASVKVSCKASGYTFTNYWMHWVRQAPGQGLEWMGNINPSSGDSYYNERFMSRVTMTVDKSTSTVYMELSSLRSEDTAVYYCARSGGLWLAFWGQGTLVTVSSGGGGSGGGGSGGGGSDIVMTQSPDSLAVSLGERATINCKSSQTLLNSVSQNNYLAWYQQKPGQSPKLLIYFASTRESGVPDRFSGSGSGTDFTLTISSLQAEDVAVYYCQQHYRTPYTFGGGTKVEIK = 7.96

As a next step, examine the binder that follows.
Query: Which value of pEC50 has been reported for F2.39.3-H5 (scFv, not shown: small tags and cut ends, also called S009-F2.39.3 humanized antibody VH2 + VL1) scFv: EVQLVQSGAEVKKPGASVKVSCKASGYTFTNYWMHWVRQAPGQGLEWMGNINPSSGDSYYNERFMSRVTMTVDKSTSTAYMELSSLRSEDTAVYYCARSGGLWLAFWGQGTLVTVSSGGGGSGGGGSGGGGSDIVMTQSPDSLAVSLGERATINCKSSQTLLNSVSQNNYLAWYQQKPGQSPKLLIYFASTRESGVPDRFSGSGSGTDFTLTISSLQAEDVAVYYCQQHYRTPYTFGGGTKVEIK in the records?
Reply: 8.20

meta.source: patent US20250250357A1
